B1: library; a variant is named by its letters at N, in order (parent)
chain: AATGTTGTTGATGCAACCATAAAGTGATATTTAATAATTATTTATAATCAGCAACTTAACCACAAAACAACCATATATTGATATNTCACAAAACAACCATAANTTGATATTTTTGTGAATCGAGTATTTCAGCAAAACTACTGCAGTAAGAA

# Variants of: B1
# ASSAY DETAILS: relative integration efficiency (T-LR orientation) vs wild-type transposon end (log2 (normalized fold change)); transposon end mutated: left end; higher = more efficient transposition
# CONDITION SUMMARY: with VchCAST RNA-guided transposition machinery (E. coli BL21(DE3) host, lacZ target)
READOUT NAME: relative integration efficiency (log2)
Answers are plain numbers.

Worked examples, 5 variants total:
# VARIANT, NUMBER
records = [
    ("CG T82A A83T", -0.417),
    ("CG A65C A66C", 0.318),
    ("TG T76A T78A T84A C87A", 0.281),
    ("CG T111A T112A T113A T114A", -0.629),
    ("CG T31A T32A A33T A34T", 0.0738),
]

# per-item lookup of relative integration efficiency (log2); items listed below
1. CG T35A A36T A37T T38A
2. CG T30A T84A T110A

Marked response:
[0.322, -0.322]

The origin of these recorded values is the supplement of paper PMC10201428.
